Method Summary: Inhibition of JAK2 V617F mutant in mouse BaF3 cells assessed as reduction in cell viability incubated for 72 hrs by MTT assay
Would you mind telling me the reported pIC50 of each entry?
// pIC50 here means minus log10 of the molar concentration (mol/L)

Prompt line: Requested field: pIC50. Item: CC(C)n1cc(-c2nc(Nc3ccc4c(c3)CCN(CCCCO)C4)ncc2F)cn1
Response line: 6.35

Prompt line: Can you handle Cc1cnc(Nc2ccc3c(c2)CCN(C/C=C/C(=O)NCCN2CCCCC2)C3)nc1-c1cnn(C(C)C)c1 next?
Response line: 5.92

Prompt line: Can you handle Cc1cnc(Nc2ccc3c(c2)CCN(CCCO)C3)nc1-c1cnn(C(C)C)c1 next?
Response line: 6.44

Prompt line: Can you handle Cc1cnc(Nc2ccc3c(c2)CN(C(=O)/C=C/CN(C)C)CC3)nc1-c1cnn(C(C)C)c1 next?
Response line: 7.60

Prompt line: Can you handle Cc1cnc(Nc2ccc3c(c2)CN(C(=O)/C=C/C(=O)c2ccccc2)CC3)nc1-c1cnn(C(C)C)c1 next?
Response line: 7.21

Prompt line: Can you handle CCCCN1CCc2cc(Nc3ncc(C)c(-c4cnn(C(C)C)c4)n3)ccc2C1 next?
Response line: 6.19

Prompt line: Can you handle Cc1cnc(Nc2ccc3c(c2)CCN(C/C=C/C(=O)NC(C)(C)C)C3)nc1-c1cnn(C(C)C)c1 next?
Response line: 6.84

Prompt line: Can you handle CC(C)n1cc(-c2nc(Nc3ccc4c(c3)CCN(C(=O)CO)C4)ncc2F)cn1 next?
Response line: 6.17

Prompt line: Can you handle Cc1cnc(Nc2ccc3c(c2)CCN(C(=O)CCCN(C)C)C3)nc1-c1cnn(C(C)C)c1 next?
Response line: 5.61

// data source = BindingDB's records for doi:10.1021/acs.jmedchem.0c01488
